test system: PL-21; experiment: area under dose-response curve (cell viability) (AUC (arbitrary, % viability x log concentration)); higher = less sensitive (more viable); settings: 4 days
Quick rule for you: area under dose-response curve at 600 or higher means t, lower means f.

Confirm if area under dose-response curve reported for the molecule CCN(CC)CCCC(C)Nc1c2ccc(Cl)cc2nc2ccc(OC)cc12 (stereo not given) [Acrichine] is 600 or above.
f

Confirm if area under dose-response curve reported for the molecule Nc1ccccc1NC(=O)c1ccc(CNC(=O)OCc2cccnc2)cc1 [MS-275] is 600 or above.
f

Confirm if area under dose-response curve reported for the molecule NC(=O)[C@@H](CCC(F)(F)F)N(Cc1ccc(-c2ncon2)cc1F)S(=O)(=O)c1ccc(Cl)cc1 is 600 or above.
t

Confirm if area under dose-response curve reported for the molecule NC1(c2ccc(-c3nc4ccn5c(=O)[nH]nc5c4cc3-c3ccccc3)cc2)CCC1 [MK2206] is 600 or above.
f

Confirm if area under dose-response curve reported for the molecule COc1cc2c(N3CCN(C(=O)Nc4ccc(OC(C)C)cc4)CC3)ncnc2cc1OCCCN1CCCCC1 [Tandutinib] is 600 or above.
t
